Data origin, for the record: paper PMC10397247

# test.system: T1, O8-bA
# T1 chain: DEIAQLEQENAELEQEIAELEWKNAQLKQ
# method.notes: two-hybrid library CCNG1;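 also: natural log of median RNA to DNA barcode read ratio; higher means stronger binding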
result.type: interaction score

# binder, interaction score
measured = [
    ("DKNQELKKKIEELEREIWELKKKNQELER [4H3855-bH]", -2.06),
    ("DEIAQLKQENAELEQKIAELKWENAQLEQ [4H683-bA]", -2.64),
    ("DEIAQLEQKIAELKQENAELEWENAQLEQ [O3-bA]", -1.12),
    ("DEIAQLEQKIAELKQKNAELKWKNAQLKQ [O12-bA]", 0.0711),
    ("DKNAQLKQKIAELKQKNAELKWEIAQLEQ [O13-bA]", 0.83),
]

a = DKIAQLKQKNAELKQEIAELEWKNAQLKQ [O16-bA]
b = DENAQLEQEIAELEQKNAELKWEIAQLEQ [O5-bA]
Challenge: Compare a and b and name the one whose reported interaction score is smaller. Give the chosen item's label as your response.
Response given: b
(b: -0.893, a: 1.35)
